These entries and their values trace back to paper PMC8041284.

Let's look at some compounds and their measured inhibition at 10 µM.
assay-system: BTK (Homo sapiens)
Sequence (Q06187 402-655 limits assumed): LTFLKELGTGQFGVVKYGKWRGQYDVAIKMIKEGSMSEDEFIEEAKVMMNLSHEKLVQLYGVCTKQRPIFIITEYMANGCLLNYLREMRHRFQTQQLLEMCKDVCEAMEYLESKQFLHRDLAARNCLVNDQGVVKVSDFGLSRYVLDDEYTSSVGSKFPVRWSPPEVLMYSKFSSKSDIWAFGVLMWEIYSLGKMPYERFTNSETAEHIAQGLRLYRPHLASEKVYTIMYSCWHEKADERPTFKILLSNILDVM
protocol-description: biochemical
measurement-conditions: read-out: BTK inhibition (%), 0.75 uM BTK, […] probe 3l, 15 min preincubation
Kindly provide the numeric value in % only, without the unit symbol.

Please review the following examples before continuing.
• C[C@@H]1O[C@@H](O[C@H]2[C@H](O)[C@@H](O)[C@H](OC[C@H]3O[C@@H](OC(=O)[C@]45CCC(C)(C)C[C@H]4C4=CC[C@@H]6[C@@]7(C)CC[C@H](O[C@@H]8OC[C@H](O)[C@H](O)[C@H]8O)[C@@](C)(CO)[C@@H]7CC[C@@]6(C)[C@]4(C)CC5)[C@H](O)[C@@H](O)[C@@H]3O)O[C@@H]2CO)[C@H](O)[C@H](O)[C@H]1O [PCM-0216340] = -10.2
• CC(Nc1nc(N2CCCC2)nc2ccccc12)c1ccccc1 (stereo not shown) [PCM-0215774] = -23.2
• CC(C)c1c(-c2ccccc2)nc2c(C#N)c[nH]n2c1=O [PCM-0215735] = 24.7
• C=CC/C(=N\OS(=O)(=O)O)S[C@@H]1O[C@H](CO)[C@@H](O)[C@H](O)[C@H]1O [PCM-0216356] = 3.9
• C[n+]1ccccc1/C=N/O [PCM-0086551] = -18.5
• CC(C)(Cc1ccc2ccccc2c1)NC[C@@H](O)COc1cccc(Cl)c1C#N [PCM-0095749] = -11.7

We now examine a further compound.
I looked up NCCOCCOCCNC(=O)Cc1ccc(Nc2nc(NCc3ccc(F)cc3)nc(NCC3CCCCC3)n2)cc1 [PCM-0215568] and its inhibition at 10 µM for BTK (Homo sapiens) was -36.3
